Molecular target: UniProt:Q12809
Sequence (Q12809 whole entry): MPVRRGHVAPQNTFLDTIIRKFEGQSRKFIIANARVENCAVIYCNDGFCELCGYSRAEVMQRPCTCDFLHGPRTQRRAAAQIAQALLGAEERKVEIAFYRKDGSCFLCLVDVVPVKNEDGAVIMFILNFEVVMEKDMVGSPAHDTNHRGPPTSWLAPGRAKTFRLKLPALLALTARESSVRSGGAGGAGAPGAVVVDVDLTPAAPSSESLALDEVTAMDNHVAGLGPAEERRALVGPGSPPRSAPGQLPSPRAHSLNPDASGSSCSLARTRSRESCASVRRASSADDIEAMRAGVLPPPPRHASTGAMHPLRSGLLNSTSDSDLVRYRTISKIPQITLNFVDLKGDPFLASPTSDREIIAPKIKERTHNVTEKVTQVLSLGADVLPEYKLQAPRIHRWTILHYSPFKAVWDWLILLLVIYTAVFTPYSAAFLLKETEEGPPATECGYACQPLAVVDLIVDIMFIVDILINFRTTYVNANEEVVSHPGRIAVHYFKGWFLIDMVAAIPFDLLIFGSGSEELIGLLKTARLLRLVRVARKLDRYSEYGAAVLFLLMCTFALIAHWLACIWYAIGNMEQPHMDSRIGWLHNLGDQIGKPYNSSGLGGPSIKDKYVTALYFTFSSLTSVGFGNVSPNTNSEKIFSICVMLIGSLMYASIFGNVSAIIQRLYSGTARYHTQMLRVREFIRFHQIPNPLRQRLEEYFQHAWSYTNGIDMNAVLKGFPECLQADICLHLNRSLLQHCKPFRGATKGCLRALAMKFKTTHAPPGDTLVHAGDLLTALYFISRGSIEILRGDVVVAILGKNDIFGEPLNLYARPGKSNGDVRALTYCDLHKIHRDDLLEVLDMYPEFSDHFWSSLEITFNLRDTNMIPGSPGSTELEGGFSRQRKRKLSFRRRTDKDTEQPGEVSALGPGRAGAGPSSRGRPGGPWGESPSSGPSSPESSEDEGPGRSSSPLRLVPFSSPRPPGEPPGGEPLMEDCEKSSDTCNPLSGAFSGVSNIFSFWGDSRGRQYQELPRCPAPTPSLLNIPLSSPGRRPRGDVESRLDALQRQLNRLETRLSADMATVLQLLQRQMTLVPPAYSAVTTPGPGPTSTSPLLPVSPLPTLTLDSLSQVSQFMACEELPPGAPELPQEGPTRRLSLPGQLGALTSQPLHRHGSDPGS
pIC50: −log10 of the molar value.
Readout type: pIC50

get_value(item= C[C@@H]1COCCN1c1nc(-c2nncc3[nH]ccc23)cc2c1ncn2C , readout=pIC50) returns < 4.52

* * *

Test: Solubility of the compound in PBS buffer at pH 7 by shake flask equilibrium solubility assay
Readout type: solubility thermodynamic (µM)
Answers are plain numbers, in µM.

{"Substance smiles": "CS(=O)(=O)Cn1cnc2c(N3CCOCC3)nc(-c3cccc4[nH]ccc34)cc21", "solubility thermodynamic, µM": 193}

get_value(item= c1cc(-c2cc3nccn3c(N3CCOCC3)n2)c2cc[nH]c2c1 , readout=solubility thermodynamic) returns 56

* * *

Consider the following compounds; for each one, report its Papp A→B at 10 µM.
Assay: Apparent permeability from apical to basolateral side in human Caco2 cells at 10 uM and pH 7.4
Settings: Caco-2, pH 7.4
Give bare numbers, in ×10⁻⁶ cm/s.

Study these solved cases before continuing.
{"Substance smiles": "C[C@@H]1COCCN1c1nc(-c2c(F)ncc3[nH]ccc23)cc2c1ncn2C", "Recorded measurement": 38}
{"Substance smiles": "C[C@@H]1COCCN1c1nc(-c2cncc3[nH]ccc23)cc2c1ncn2[C@@H](C)S(C)(=O)=O", "Recorded measurement": 2}
{"Substance smiles": "C[C@@H]1COCCN1c1nc(-c2nncc3[nH]ccc23)cc2c1ncn2C", "Recorded measurement": 3.6}

--- query ---
get_value(item= CS(=O)(=O)Cn1cnc2c(N3CCOCC3)nc(-c3cccc4[nH]ccc34)cc21 , readout=Papp A→B at 10 µM) returns 14

* * *

Test: Intrinsic clearance in rat liver microsomes
Assay type: ADME
Conditions: read-out: CLH
Readout type: CLint scaled (mL/min/kg)
Answers are plain numbers, in mL/min/kg.

get_value(item= CS(=O)(=O)Cn1cnc2c(N3CCOCC3)nc(-c3cccc4[nH]ccc34)cc21 , readout=CLint scaled) returns 30

* * *

Experiment: Oral bioavailability in Sprague-Dawley rat at 5 mg/kg
Format: ADME, organism-based
Conditions: in vivo
Readout type: bioavailability (%)
One number for each entry, in %.

Study these solved cases before continuing.
{"Substance smiles": "CS(=O)(=O)Cn1cnc2c(N3CCOCC3)nc(-c3cccc4[nH]ccc34)cc21", "Readout type": "bioavailability", "Recorded measurement": 96}
{"Substance smiles": "C[C@@H]1COCCN1c1nc(-c2nncc3[nH]ccc23)cc2c1ncn2C", "Readout type": "bioavailability", "Recorded measurement": 7.5}
{"Substance smiles": "C[C@@H]1COCCN1c1nc(-c2cncc3[nH]ccc23)cc2c1ncn2C", "Readout type": "bioavailability", "Recorded measurement": 18}

get_value(item= C[C@@H]1COCCN1c1nc(-c2c(F)ncc3[nH]ccc23)cc2c1ncn2C , readout=bioavailability) returns 66

* * *

Consider the following molecules; for each one, report its Papp B→A at 10 µM.
Experiment: Apparent permeability from basolateral to apical side in human Caco2 cells at 10 uM and pH 7.4
Settings: Caco-2, pH 7.4
Give bare numbers, in ×10⁻⁶ cm/s.

{"Substance smiles": "C[C@@H]1COCCN1c1nc(-c2nncc3[nH]ccc23)cc2c1ncn2C", "Recorded measurement": 38}
{"Substance smiles": "C[C@@H]1COCCN1c1nc(-c2c(F)ncc3[nH]ccc23)cc2c1ncn2C", "Recorded measurement": 38}
{"Substance smiles": "CS(=O)(=O)Cn1cnc2c(N3CCOCC3)nc(-c3cccc4[nH]ccc34)cc21", "Recorded measurement": 58}

--- query ---
get_value(item= C[C@@H]1COCCN1c1nc(-c2cncc3[nH]ccc23)cc2c1ncn2[C@@H](C)S(C)(=O)=O , readout=Papp B→A at 10 µM) returns 37
